targetOfAssay: HCT-116
experimentalDetails: Antiproliferative activity against human HCT116 cells
measurementType: IC50 (nM)
Field format: number, assumed nM, no unit text.

Exercise: Please look up its IC50: O=C1N=C(N[C@@H](CO)Cc2ccccc2)SC1=Cc1ccc2ncccc2c1
Key: 1580

* * *

Test system: SJSA-1
experimentalDetails: Antiproliferative activity against human SJSA1 cells
measurementType: IC50 (µM)
Field format: number, assumed µM, no unit text.

Use the examples below as a reference point.
molSmiles: O=C1N=C(NCc2cccs2)S/C1=C/c1ccc2ncccc2c1
targetOfAssay: SJSA-1
IC50 [µM]: 4.55

molSmiles: O=C1N=C(N[C@@H](CO)Cc2ccccc2)SC1=Cc1ccc2ncccc2c1
targetOfAssay: SJSA-1
IC50 [µM]: 3.24

Exercise: Please look up its IC50: O=C1N=C(N[C@@H]2C[C@H]2c2ccccc2)SC1=Cc1ccc2ncccc2c1
Key: 1.85
